# Test system: NIH3T3MEN2A
# Procedure summary: Reversion of RET C634R mutant oncogene-transformed morphologic phenotype of mouse NIH3T3MEN2A cells at 10 uM after 72 hrs
# Format: functional, cell-based
Calls of active or inactive are those of the source. The rule behind the calls is not given here.
Respond using exactly one of the listed classes: active, inactive

[Q] Recorded test call requested for O=C(Nc1ccccc1)Nc1ccc(/C=C2\C(=O)N(O)c3ccccc32)cc1
[A] inactive

[Q] Recorded test call requested for COc1cc2c(cc1OC)/C(=C\c1ccc(C(=O)Nc3ccccc3)cc1)C(=O)N2
[A] inactive

[Q] Recorded test call requested for COc1cc2c(cc1OC)/C(=C\c1ccc(O)cc1)C(=O)N2
[A] active

[Q] Recorded test call requested for O=C(Nc1ccccc1)Nc1ccc(/C=C2/C(=O)Nc3ccccc32)cc1
[A] inactive

[Q] Recorded test call requested for COc1cc2c(cc1OC)N(C)C(=O)/C2=C/c1ccc(NC(=O)Nc2ccccc2)cc1
[A] active

[Q] Recorded test call requested for COc1cc2c(cc1OC)/C(=C\c1ccc(NC(=O)Nc3ccncc3)cc1)C(=O)N2
[A] inactive

====

# Tested on: NIH3T3
# Procedure summary: Antiproliferative activity against mouse NIH3T3 after 72 hrs
# Run conditions: NIH3T3, 72 h
Can you tell me pIC50 for the items I'm about to list?
Answers are plain numbers, as −log10 of the molar value.

Smiles input	pIC50
COc1cc2c(cc1OC)N(C)C(=O)/C2=C/c1ccc(NC(=O)Nc2ccccc2)cc1	5.18
COc1cc2c(cc1OC)/C(=C\c1ccc(NC(=O)Nc3ccccc3)cc1)C(=O)N2	4.85
COc1ccc(NC(=O)Nc2ccc(/C=C3/C(=O)Nc4cc(OC)c(OC)cc43)cc2)cc1	4.83

Continue with the next compound.
[Q] Entry COc1cc2c(cc1OC)/C(=C\c1ccc(O)cc1)C(=O)N2 : reported pIC50 = ?
[A] 4.79

====

# Procedure summary: Antiproliferative activity against RET C634R mutant oncogene-transformed mouse NIH3T3MEN2A after 72 hrs
# Assay type: functional
pIC50: −log10 of the molar value.
Criterion: pIC50 meeting or surpassing 5. Met: MET. Not met: NOT MET.

Smiles input	Qualitative label
COc1cc2c(cc1OC)/C(=C\c1ccc(NC(=O)Nc3ccc4c(c3)OCO4)cc1)C(=O)N2	NOT MET

[Q] Hello, I need to know if COc1ccc(NC(=O)Nc2ccc(/C=C3/C(=O)Nc4cc(OC)c(OC)cc43)cc2)cc1 has measured pIC50 not below 5. Thanks!
[A] MET

[Q] Hello, I need to know if O=C(Nc1ccccc1)Nc1ccc(/C=C2\C(=O)Nc3ccccc32)cc1 has measured pIC50 not below 5. Thanks!
[A] NOT MET

[Q] Hello, I need to know if COc1cc2c(cc1OC)/C(=C\c1ccc(O)cc1)C(=O)N2 has measured pIC50 not below 5. Thanks!
[A] MET

====

Can you tell me IC50 for the items I'm about to list?
# Target desc: Proto-oncogene tyrosine-protein kinase receptor Ret (Homo sapiens)
# Sequence (P07949 whole entry): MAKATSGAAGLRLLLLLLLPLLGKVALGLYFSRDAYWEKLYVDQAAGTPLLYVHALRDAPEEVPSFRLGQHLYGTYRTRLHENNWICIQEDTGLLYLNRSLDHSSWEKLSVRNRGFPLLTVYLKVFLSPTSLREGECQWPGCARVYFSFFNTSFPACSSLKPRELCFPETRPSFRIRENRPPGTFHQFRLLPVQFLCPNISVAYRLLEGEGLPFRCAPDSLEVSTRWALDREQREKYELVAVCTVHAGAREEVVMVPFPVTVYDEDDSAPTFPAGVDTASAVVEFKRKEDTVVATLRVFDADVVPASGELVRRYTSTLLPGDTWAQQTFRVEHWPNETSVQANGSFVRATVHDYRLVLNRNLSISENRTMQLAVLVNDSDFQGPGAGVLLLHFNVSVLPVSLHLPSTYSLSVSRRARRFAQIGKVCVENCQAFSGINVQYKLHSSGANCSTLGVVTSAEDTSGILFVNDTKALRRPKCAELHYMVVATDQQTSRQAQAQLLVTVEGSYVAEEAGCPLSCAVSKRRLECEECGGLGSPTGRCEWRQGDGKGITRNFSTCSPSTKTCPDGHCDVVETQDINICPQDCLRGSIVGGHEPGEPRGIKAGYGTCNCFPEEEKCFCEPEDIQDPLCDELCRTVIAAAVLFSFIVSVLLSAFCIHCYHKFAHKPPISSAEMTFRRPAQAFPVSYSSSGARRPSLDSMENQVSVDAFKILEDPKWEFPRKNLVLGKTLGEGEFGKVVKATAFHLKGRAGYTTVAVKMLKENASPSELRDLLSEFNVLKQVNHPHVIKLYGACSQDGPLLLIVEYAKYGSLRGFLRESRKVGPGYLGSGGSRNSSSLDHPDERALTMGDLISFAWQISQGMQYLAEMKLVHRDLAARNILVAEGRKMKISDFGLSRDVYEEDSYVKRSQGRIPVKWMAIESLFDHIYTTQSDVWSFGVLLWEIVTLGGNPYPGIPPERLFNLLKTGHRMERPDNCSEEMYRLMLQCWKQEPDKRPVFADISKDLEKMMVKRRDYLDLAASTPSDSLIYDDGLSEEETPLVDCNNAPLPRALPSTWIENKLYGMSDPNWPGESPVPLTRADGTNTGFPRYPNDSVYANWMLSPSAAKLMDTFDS
# Procedure summary: Inhibition of RET in mouse NIH3T3MEN2A cells

Smiles input	IC50
COc1cc2c(cc1OC)/C(=C\c1ccc(NC(=O)N3CCN(C)CC3)cc1)C(=O)N2	> 3 µM

Continue with the next compound.
[Q] Entry COc1cc2c(cc1OC)/C(=C\c1ccc(O)cc1)C(=O)N2 : reported IC50 = ?
[A] 0.17 µM
